Hello, the source for this data is patent US10757944B2, in case you need it.

# procedure text: Cannabinoid and terpene content of cannabis flower before and after ozone exposure
# Type: physicochemical
# condition set: content of cannabis flower before exposure
Entries whose % Before Ozone Exposure (0 minutes) is below 0.6% take Satisfied; entries at or above 0.6% take Not satisfied.

Previously resolved entries follow.
>  <compound>
C=C(C)[C@@H]1CCC(C)=C[C@H]1c1c(O)cc(CCCCC)c(C(=O)O)c1O [CBDA]

>  <category>
Satisfied

$$$$
>  <compound>
CCCCCc1cc2c(c(O)c1C(=O)O)[C@@H]1C=C(C)CC[C@H]1C(C)(C)O2 [THCA]

>  <category>
Not satisfied

$$$$

For this compound, is % Before Ozone Exposure (0 minutes) lower than 0.6%? CCCc1cc2c(c(O)c1C(=O)O)[C@@H]1C=C(C)CC[C@H]1C(C)(C)O2 [THCVA]
Satisfied

Identify whether the compound CCCCCc1cc2c(c(O)c1C(=O)O)C=CC(C)(CCC=C(C)C)O2 (stereo not shown) [CBCA] records % Before Ozone Exposure (0 minutes) below 0.6%.
Satisfied

I wonder whether CCCCCc1cc2c(c(O)c1C(=O)O)-c1cc(C)ccc1C(C)(C)O2 [CBNA] has % Before Ozone Exposure (0 minutes) below 0.6%. Can you tell?
Satisfied

A record lists CCCCCc1cc(O)c2c(c1)OC(C)(C)[C@@H]1CCC(C)=C[C@@H]21 [THC] . Is its % Before Ozone Exposure (0 minutes) below 0.6%?
Not satisfied

Item CCCCCc1cc(O)c(C/C=C(\C)CCC=C(C)C)c(O)c1C(=O)O [CBGA] : % Before Ozone Exposure (0 minutes) beneath 0.6%, strictly?
Not satisfied
